Please provide measured Ki for the entries that follow.
target: D(2) dopamine receptor (Homo sapiens, UniProt P14416); experiment: Inhibition of D2L dopamine receptor in HEK 293 cells by intracellular calcium assay; assay type: functional, cell-based, HEK293
Sequence (P14416 whole entry): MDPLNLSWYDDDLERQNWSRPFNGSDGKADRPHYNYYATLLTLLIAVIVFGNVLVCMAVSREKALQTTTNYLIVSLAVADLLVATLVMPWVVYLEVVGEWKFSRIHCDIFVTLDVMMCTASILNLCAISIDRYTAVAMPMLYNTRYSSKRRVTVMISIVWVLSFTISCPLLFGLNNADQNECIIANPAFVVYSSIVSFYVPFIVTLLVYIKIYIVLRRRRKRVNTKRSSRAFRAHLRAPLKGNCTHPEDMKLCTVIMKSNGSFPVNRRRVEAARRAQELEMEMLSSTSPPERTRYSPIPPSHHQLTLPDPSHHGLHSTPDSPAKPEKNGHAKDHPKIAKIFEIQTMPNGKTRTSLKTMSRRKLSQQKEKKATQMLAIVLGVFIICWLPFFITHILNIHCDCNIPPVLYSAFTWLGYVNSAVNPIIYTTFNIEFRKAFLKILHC
Answers are plain numbers, in nM.

CN1CCc2ccccc2Cc2c(ccc(O)c2Cl)CC1    0.13
CN1CCc2ccccc2Cc2c(O)cccc2CC1    7.9
CN1CCc2ccccc2Cc2ccc(O)c(Cl)c2CC1    6.1
CN1CCc2ccccc2Cc2cc(Cl)c(O)c(Cl)c2CC1    37.5
COc1cccc2c1Cc1ccccc1CCN(C)CC2    39.9
COc1ccc2c(c1)CCN(C)CCc1ccccc1C2    0.55

Okay, now this compound:
Lab book: Ki of `COc1ccc2c(c1)Cc1ccccc1CCN(C)CC2` noted as 21.1
